What perceived odor intensity rating was measured for each of the following?
Test system: Homo sapiens (human subject panel, olfactory perception)
Test: perceived odor intensity rating (rating 0-100); higher = stronger perceived smell
Settings: odor dilution in paraffin oil: 1/1,000
Give bare numbers.

Consider the following illustrative entries.
1) C=CCc1ccc(OC)c(OC)c1 ... 37.5
2) COC(C)=O [methyl acetate] ... 23.9

For each of the compounds below, note its perceived odor intensity rating.
1. CCCCC/C=C\CCCO [cis-4-Decen-1-ol]
2. CC1(C)C(=O)[C@@]2(C)CC[C@H]1C2
3. Cc1cccc(C)n1
4. C=CCOC(=O)/C(C)=C/C [Allyl tiglate]
5. N[C@@H](CS)C(=O)O
6. CCC/C=C/COC(C)=O [trans-2-Hexenyl acetate]
7. CCCCCCCCCCC

A)
[65.4, 64.5, 78.1, 71.9, 33.4, 64.3, 21]

For each of the compounds below, note its perceived odor intensity rating.
1. C=CCOC(=O)CCCCCC [Allyl heptanoate]
2. C=CCOC(=O)/C=C/c1ccccc1 [Allyl cinnamate]

A)
[53.9, 57]

For each of the compounds below, note its perceived odor intensity rating.
1. CC(=O)CC/C=C(\C)CCC=C(C)C
2. CC=O
3. O=c1ccc2ccccc2o1
4. N[C@@H](CC(=O)O)C(=O)O

A)
1: 42.1; 2: 40.5; 3: 62.8; 4: 29.7

====

Test system: Homo sapiens (human subject panel, olfactory perception)
Experiment: perceived odor intensity rating (rating 0-100); higher = stronger perceived smell
Details: odor dilution in paraffin oil: 1/1,000
property: perceived odor intensity rating

1. CCCCCCCCCC(=O)OCC [Ethyl decanoate] ... 21.2
2. S=C=NCc1ccccc1 [Benzyl isothiocyanate] ... 80.9
3. COc1ccc(C(C)=O)cc1 [Acetanisole] ... 44.1
4. CC[C@H](C)O [(S)-( + )-2-butanol] ... 16.4
5. CC(=O)c1ccccc1O [2-Hydroxyacetophenone] ... 80.7
6. CCCCCC(CC)OC(C)=O (stereo not drawn) [3-Octyl Acetate] ... 39.7

For each of the molecules below, note its perceived odor intensity rating.
1. CCCCCCC#CC(=O)OC [Methyl 2-nonynoate]
2. CCCCCCCC(=O)OCCC(C)C [Isoamyl octanoate]
3. CC/C=C\CCOC(=O)C(C)C [cis-3-Hexenyl isobutyrate]
4. CCCCCCC(=O)O [Heptanoic Acid]
5. OC/C=C/c1ccccc1 [cinnamyl alcohol]
6. CC(C)=CCC/C(C)=C/CO [geraniol]
7. C=CC(C)(O)CCC=C(C)C (stereo not drawn) [Linalool]
8. CCCCCCOC(=O)c1ccccc1 [Hexyl benzoate (replicate)]

A)
1. 71.1
2. 24.3
3. 73.3
4. 77.5
5. 75.8
6. 71.8
7. 62.1
8. 35.9

====

Test system: Homo sapiens (human subject panel, olfactory perception)
Experiment: perceived odor intensity rating (rating 0-100); higher = stronger perceived smell
Details: odor dilution in paraffin oil: 1/1,000
Label rule, in plain words: perceived odor intensity rating of 40 and up is Met, under 40 is Not met.

Check out these entries, answers already filled in.
1) COC(=O)CCC(=O)OC [dimethyl succinate] ... Met
2) NC(=O)CC[C@H](N)C(=O)O ... Not met
3) CCCCCCCO [heptanol (replicate)] ... Met
4) CCCCCCCCCC(C)=O ... Not met

Q) Hi, just wondering whether C=CCCCCCCCCC(=O)OCCCC [Butyl 10-undecenoate] shows perceived odor intensity rating of 40 or higher.
A) Not met

Q) Hi, just wondering whether C/C=C/C=C/C(=O)OCC [Ethyl sorbate] shows perceived odor intensity rating of 40 or higher.
A) Met

Q) Hi, just wondering whether CCCOC(=O)CC [Propyl propionate] shows perceived odor intensity rating of 40 or higher.
A) Met

Q) Hi, just wondering whether CCCCCCCCCCC(=O)OCC [Ethyl undecanoate] shows perceived odor intensity rating of 40 or higher.
A) Not met

Q) Hi, just wondering whether CCCCOC(=O)[C@H](C)O [Butyl (S)-(-)-lactate] shows perceived odor intensity rating of 40 or higher.
A) Met

Q) Hi, just wondering whether CCC(C)CO (configuration not stated) [2-Methyl-1-butanol (replicate)] shows perceived odor intensity rating of 40 or higher.
A) Met

Q) Hi, just wondering whether O=C(O)CC1CCCCC1 shows perceived odor intensity rating of 40 or higher.
A) Met

====

Tested on: Homo sapiens (human subject panel, olfactory perception)
Test: perceived odor intensity rating (rating 0-100); higher = stronger perceived smell
Details: odor dilution in paraffin oil: 1/1,000
Where a name gives a salt, the structure may show the parent alone.
property: perceived odor intensity rating

Consider the following illustrative entries.
1. NCCc1ccccc1 ... 62.9
2. CCCCCCCCCC=O ... 59.9
3. CSCCO ... 77.7

For each of the compounds below, note its perceived odor intensity rating.
1. CCCCCCCC(C)=O
2. Cc1ccc(C)[nH]1
3. C=CC(CCCCC)OC(C)=O (stereo not drawn) [1-Octen-3-yl acetate]
4. CC(C)C(=O)OCCOc1ccccc1 [2-Phenoxyethyl isobutyrate]
5. CCCCC(CC)COC(C)=O (stereo not drawn) [2-ethylhexyl acetate]
6. CCOC=O [Ethyl formate]
7. CCOC(=O)CC(C)O (stereo not drawn) [ethyl-3-hydroxybutyrate]

A)
1: 58; 2: 71.4; 3: 55.9; 4: 27.5; 5: 44.4; 6: 16.5; 7: 58.1

====

Tested on: Homo sapiens (human subject panel, olfactory perception)
Assay: perceived odor intensity rating (rating 0-100); higher = stronger perceived smell
Conditions: odor dilution in paraffin oil: 1/10
Label rule, in plain words: perceived odor intensity rating of 60 and up is Satisfied, under 60 is Not satisfied.

Check out these entries, answers already filled in.
1. OC1CSC(O)CS1 (stereo not given) [2,5-Dihydroxy-1,4-dithiane] ... Satisfied
2. CC(C)(C)O [tert-butanol] ... Not satisfied

Turning to the following compound.
Q) Hi, just wondering whether CS(C)(=O)=O [Methyl sulfone] shows perceived odor intensity rating of 60 or higher.
A) Not satisfied

====

Test system: Homo sapiens (human subject panel, olfactory perception)
Assay: perceived odor intensity rating (rating 0-100); higher = stronger perceived smell
Conditions: odor dilution in paraffin oil: 1/1,000
Category key, based on recorded perceived odor intensity rating: lower band: < 50; central band: ≥ 50 and < 70; upper band: ≥ 70

Check out these entries, answers already filled in.
1) CC(C)=O ... lower band
2) CC1=CC(=O)CC(C)(C)C1 ... central band
3) C=CCOC(=O)CCCCC [allyl hexanoate] ... central band
4) C=CCOC(=O)CCC [Allyl butyrate] ... upper band
5) C/C=C/c1ccc2c(c1)OCO2 ... lower band
6) CCCCCCCCCC(OC)OC ... lower band
7) CCCCC(C)CCC(=O)O (racemic) [(±)-4-Methyloctanoic acid] ... central band
8) OC[C@@H](O)[C@@H](O)[C@H](O)[C@@H](O)CO ... lower band
9) O=C1CCCCC1 [Cyclohexanone (replicate)] ... central band
10) Cc1cc(C(C)(C)C)c(O)c(C(C)(C)C)c1 [Butylated hydroxytoluene] ... lower band

Turning to the following molecule.
Q) Could you place CC(C)=CCCC(C)=CC#N in its proper category? Many thanks.
A) upper band

====

Test system: Homo sapiens (human subject panel, olfactory perception)
Assay: perceived odor intensity rating (rating 0-100); higher = stronger perceived smell
Conditions: odor dilution in paraffin oil: 1/1,000
property: perceived odor intensity rating
One number for each entry.

Consider the following illustrative entries.
1. CC(=O)c1c(C)c([N+](=O)[O-])c(C(C)(C)C)c([N+](=O)[O-])c1C [musk ketone] ... 49.3
2. C/C(=C\CO)CCC[C@H](C)CCC[C@H](C)CCCC(C)C [Phytol] ... 19.8
3. CCc1ccco1 [2-Ethylfuran] ... 52.4

For each of the compounds below, note its perceived odor intensity rating.
1. COc1cc(C=O)ccc1O [vanillin]
2. CC(=O)c1ccccn1 [2-acetyl pyridine]
3. NC(Cc1ccccc1)C(=O)O (racemic) [DL-Phenylalanine (replicate)]
4. COc1cccc(OC)c1 [1,3-Dimethoxybenzene]

A)
1. 74.4
2. 79.2
3. 39.2
4. 68.4

====

Tested on: Homo sapiens (human subject panel, olfactory perception)
Experiment: perceived odor intensity rating (rating 0-100); higher = stronger perceived smell
Conditions: odor dilution in paraffin oil: 1/1,000
Where a name gives a salt, the structure may show the parent alone.
property: perceived odor intensity rating

Consider the following illustrative entries.
1) CC(C)CC(=O)O[C@@H]1C[C@H](C)CC[C@H]1C(C)C [Menthyl isovalerate] ... 33.9
2) CCCCC(CC)CO (stereo not given) [2-ethyl-1-hexanol] ... 79.7
3) CCC/C=C/C=O [2-hexenal] ... 67.4
4) CCCCC/C=C\C/C=C\CCCCCCCC(=O)O [Linoleic acid] ... 64.8
5) c1cnccn1 [pyrazine] ... 18.9

For each of the compounds below, note its perceived odor intensity rating.
1. CNc1ccccc1C(=O)OC [Dimethyl anthranilate]
2. CC(C)COC(=O)/C=C/c1ccccc1 [Isobutyl cinnamate]

A)
1. 44.2
2. 49.3

For each of the compounds below, note its perceived odor intensity rating.
1. Cc1ccc(C(C)CC=O)o1 (stereo not given) [3-(5-Methyl-2-furyl)butanal]
2. CCCCCCCCCCCCO [Lauryl alcohol]

A)
[74.3, 24.8]

For each of the compounds below, note its perceived odor intensity rating.
1. CCCC(=O)OCC [ethyl butyrate]
2. CCCCCCCCOC(=O)C(C)C [Octyl isobutyrate]
3. CC1=CCC(C(C)(C)OC=O)CC1 (stereo not given) [Terpinyl formate]
4. c1ccsc1 [Thiophene]

A)
77.8
29.9
42.2
32.8

For each of the compounds below, note its perceived odor intensity rating.
1. CC(=O)c1ncc(C)nc1C [2-Acetyl-3,5(6)-dimethylpyrazine]
2. CCCCCC1CCCC(=O)O1 (stereo not given) [delta-Decalactone]
3. CCCCCCC(=O)OC [Methyl heptanoate]
4. Cc1ccc2oc(=O)ccc2c1 [6-Methylcoumarin]
5. CCCC(=O)OCCC(C)C [Isoamyl butyrate]
6. CCCCCC/C=C\CO [cis-2-Nonen-1-ol]

A)
1. 85.4
2. 65.7
3. 52.9
4. 62.9
5. 63.4
6. 77.9
